Test system: mice
Test description: Injection into the tail vein of mice (deaths, growth)
Assay type: in vivo
Condition summary: 500 μl in NaCl 9%, 10 mice of 20-25g, observed for 35 days
Listed below: concentration of which injection caused no deaths and did not perturb the normal growth values for each entry.
Only the number, expressed in µg/mL, is required.

C[N+](C)(C)CCOP(=O)([O-])OCC(COCCCCCCCCCCCC(F)(F)C(F)(F)C(F)(F)C(F)(F)F)OCCCCCCCCCCCC(F)(F)C(F)(F)C(F)(F)C(F)(F)F (racemic) | 60000
C[N+](C)(C)CCOP(=O)([O-])OCC(COC(=O)CCCCCCCCCCC(F)(F)C(F)(F)C(F)(F)C(F)(F)F)OC(=O)CCCCCCCCCCC(F)(F)C(F)(F)C(F)(F)C(F)(F)F (racemic) | 100000

Task: Specify reported concentration of which injection caused no deaths and did not perturb the normal growth for the compound shown: `C[N+](C)(C)CCOP(=O)([O-])OCCCCCCCCCCCC(F)(F)C(F)(F)C(F)(F)C(F)(F)C(F)(F)C(F)(F)C(F)(F)C(F)(F)F`
Output: 1000

* * *

Test description: Fluorocarbon (F-decalin) emulsions: average particle size and stability
Type: physicochemical
Condition summary: Table III; 1% compound + 2% EYP (Ref.: 3% EYP), 20% w/v F-decalin, sonication, stored at 25° C.
Procedure: ^a Emulsions prepared by microfluidization. Additional stable perfluorodecalin (50% w/v) emulsions based on the perfluoroalkylated phosphatidylcholines 11 or 12 (2 or 3% w/v) as the sole surfactant have been prepared by sonication. ^a Emulsions prepared by sonication ^b The emulsions are stored at 25° C. ^c The emulsions are stored at 50° C. ^a All the emulsions are prepared by microfluidization and stored at The new perfluoroalkylated surfactants were solubilized or dispersed into water. […]
Value kind: Average Particle Size After 1 month (μm)
Only the number, expressed in μm, is required.

Record excerpt, results attached:
O=P(OCCCCCCCCCCCC(F)(F)C(F)(F)C(F)(F)C(F)(F)C(F)(F)C(F)(F)F)(N1CCOCC1)N1CCOCC1 | 0.39
C[N+](C)(C)CCOP(=O)([O-])OCCC(F)(F)C(F)(F)C(F)(F)C(F)(F)C(F)(F)C(F)(F)C(F)(F)C(F)(F)F | 0.29
O=P(OCCCCCCCCCCCC(F)(F)C(F)(F)C(F)(F)C(F)(F)C(F)(F)C(F)(F)C(F)(F)C(F)(F)F)(N1CCOCC1)N1CCOCC1 | 0.39

Task: Specify reported Average Particle Size After 1 month for the molecule shown: `C[N+](C)(C)CCOP(=O)([O-])OCCCCCCCCCCCC(F)(F)C(F)(F)C(F)(F)C(F)(F)C(F)(F)C(F)(F)C(F)(F)C(F)(F)F`
Output: 0.36

* * *

Test description: Interfacial tension and spreading coefficient between water and perfluorodecalin
Assay type: physicochemical
Condition summary: 1 g/l in water, (+0.3); 56 mNm^-1 in the absence of surfactant
Listed below: γi (interfacial tension between water and perfluorodecalin) values for each entry.

Record excerpt, results attached:
C[N+](C)(C)CCOP(=O)([O-])OCCCCCCCCCCCC(F)(F)C(F)(F)C(F)(F)C(F)(F)C(F)(F)C(F)(F)C(F)(F)C(F)(F)F | 9.4 mNm^-1
O=P(OCCC(F)(F)C(F)(F)C(F)(F)C(F)(F)C(F)(F)C(F)(F)F)(N1CCOCC1)N1CCOCC1 | 2.0 mNm^-1
O=P(OCCC(F)(F)C(F)(F)C(F)(F)C(F)(F)C(F)(F)C(F)(F)C(F)(F)C(F)(F)F)(N1CCOCC1)N1CCOCC1 | 1.0 mNm^-1

Task: Specify reported γi (interfacial tension between water and perfluorodecalin) for the compound shown: `C[N+](C)(C)CCOP(=O)([O-])OCCC(F)(F)C(F)(F)C(F)(F)C(F)(F)C(F)(F)C(F)(F)C(F)(F)C(F)(F)F`
Output: 4.5 mNm^-1
